# MEASUREMENT_NOTES: refractive index (Na D-line) (dimensionless)
# TEST_CONTEXT: 333.15 K; 101.33 kPa; Liquid; Standard Abbe refractometry
refractive index values for the molecules below.

| SMILES_RECORD | refractive index |
| --- | --- |
| CC12CC3CC(C1)CC(C)(C3)C2 | 1.461 |
| OCC1CCCCC1 | 1.4463 |
| CCC12CC3CC(CC(C3)C1)C2 | 1.4759 |
| CCCCCCCO | 1.4077 |
| CC12CC3CC(C)(C1)CC(C)(C3)C2 | 1.4568 |

---

viscosity listing for selected compounds.
# TEST_CONTEXT: 328.15 K; 100 kPa; Liquid

| SMILES_RECORD | VALUE_UNITS | viscosity |
| --- | --- | --- |
| CCCCCCCO | mPa·s | 2.428 |
| CC12CC3CC(C)(C1)CC(C)(C3)C2 | mPa·s | 1.384 |
| OCC1CCCCC1 | mPa·s | 7.766 |
| CCC12CC3CC(CC(C3)C1)C2 | mPa·s | 2.838 |
| CC12CC3CC(C1)CC(C)(C3)C2 | mPa·s | 1.876 |

---

# TEST_CONTEXT: 293.15 K; 100 kPa; Liquid
Reported log10(viscosity) by item:
READOUT_KIND: log10(viscosity) (log10 of the value in mPa·s)

| COMPOUND | VAL |
| --- | --- |
| CC12CC3CC(C1)CC(C)(C3)C2 [1,3-dimethyladamantane] | 0.58 |
| CC12CC3CC(C)(C1)CC(C)(C3)C2 [1,3,5-trimethyladamantane] | 0.42 |
| CCCCCCCO [heptan-1-ol] | 0.84 |
| OCC1CCCCC1 [cyclohexylmethanol] | 1.58 |
| CCC12CC3CC(CC(C3)C1)C2 [1-ethyladamantane] | 0.80 |

---

# TEST_CONTEXT: 333.15 K; 100 kPa; Liquid
This section presents compounds with their documented viscosity values.
READOUT_KIND: viscosity (mPa·s)

| SMILES_RECORD | READOUT_KIND | VAL |
| --- | --- | --- |
| CC12CC3CC(C)(C1)CC(C)(C3)C2 | viscosity | 1.284 |
| CC12CC3CC(C1)CC(C)(C3)C2 | viscosity | 1.728 |
| OCC1CCCCC1 | viscosity | 6.462 |
| CCC12CC3CC(CC(C3)C1)C2 | viscosity | 2.581 |
| CCCCCCCO | viscosity | 2.141 |

---

Reported mass density values are given for each entry in this list.
# TEST_CONTEXT: 328.15 K; 100 kPa; Liquid; Vibrating tube method
READOUT_KIND: mass density (kg/m3)

| SMILES_RECORD | VAL |
| --- | --- |
| CC12CC3CC(C)(C1)CC(C)(C3)C2 | 862.76 |
| CCC12CC3CC(CC(C3)C1)C2 | 912.01 |
| CC12CC3CC(C1)CC(C)(C3)C2 | 876.6 |
| CCCCCCCO | 797.24 |
| OCC1CCCCC1 | 904.45 |

---

Listed here: items and their measured mass density.
# TEST_CONTEXT: 323.15 K; 100 kPa; Liquid; Vibrating tube method

| COMPOUND | mass density / kg/m3 |
| --- | --- |
| CC12CC3CC(C)(C1)CC(C)(C3)C2 [1,3,5-trimethyladamantane] | 866.31 |
| CCCCCCCO [heptan-1-ol] | 800.92 |
| OCC1CCCCC1 [cyclohexylmethanol] | 908.19 |
| CCC12CC3CC(CC(C3)C1)C2 [1-ethyladamantane] | 915.62 |
| CC12CC3CC(C1)CC(C)(C3)C2 [1,3-dimethyladamantane] | 880.19 |
